test: Pharmacokinetics and BBB penetration after i.p. and i.v. administration (LC-MS/MS); assay type: in vivo, BALB/c mice; details: BALB/c, mouse; IP, 20 mg/kg, plasma
quantity: AUC(0-inf) (µg·h/mL)
# output: bare number, implied unit µg·h/mL

Noted for CCOc1cccc(OCCN(C)C)c1C(=O)Nc1ccc(Cl)c(C(F)(F)F)c1 [Compound 1] : its AUC(0-inf) reads 0.813

---

assay: Oral pharmacokinetics; format: in vivo; details: oral, plasma; read-out: t1/2 (converted)
quantity: half-life
Express the reported value numerically, then name its unit.

Noted for CCOc1cccc(OCCN(C)C)c1C(=O)Nc1ccc(Cl)c(C(F)(F)F)c1 [Compound 1] : its half-life reads 1.06 h

Where do the numbers come from? From patent US9809532B2.
